Where do the numbers come from? From paper PMC9304199.

SYSTEM TESTED: native CFTR, genotype F508del/G551D (Homo sapiens, UniProt P13569, G551D)
Construct: For functional studies of native CFTR, we used primary cultures of human bronchial epithelial cells; host or cells: primary human bronchial epithelial cells, F508del/G551D, air-liquid interface cultures, studied at 35°C
Sequence (P13569 whole entry F508del/G551D): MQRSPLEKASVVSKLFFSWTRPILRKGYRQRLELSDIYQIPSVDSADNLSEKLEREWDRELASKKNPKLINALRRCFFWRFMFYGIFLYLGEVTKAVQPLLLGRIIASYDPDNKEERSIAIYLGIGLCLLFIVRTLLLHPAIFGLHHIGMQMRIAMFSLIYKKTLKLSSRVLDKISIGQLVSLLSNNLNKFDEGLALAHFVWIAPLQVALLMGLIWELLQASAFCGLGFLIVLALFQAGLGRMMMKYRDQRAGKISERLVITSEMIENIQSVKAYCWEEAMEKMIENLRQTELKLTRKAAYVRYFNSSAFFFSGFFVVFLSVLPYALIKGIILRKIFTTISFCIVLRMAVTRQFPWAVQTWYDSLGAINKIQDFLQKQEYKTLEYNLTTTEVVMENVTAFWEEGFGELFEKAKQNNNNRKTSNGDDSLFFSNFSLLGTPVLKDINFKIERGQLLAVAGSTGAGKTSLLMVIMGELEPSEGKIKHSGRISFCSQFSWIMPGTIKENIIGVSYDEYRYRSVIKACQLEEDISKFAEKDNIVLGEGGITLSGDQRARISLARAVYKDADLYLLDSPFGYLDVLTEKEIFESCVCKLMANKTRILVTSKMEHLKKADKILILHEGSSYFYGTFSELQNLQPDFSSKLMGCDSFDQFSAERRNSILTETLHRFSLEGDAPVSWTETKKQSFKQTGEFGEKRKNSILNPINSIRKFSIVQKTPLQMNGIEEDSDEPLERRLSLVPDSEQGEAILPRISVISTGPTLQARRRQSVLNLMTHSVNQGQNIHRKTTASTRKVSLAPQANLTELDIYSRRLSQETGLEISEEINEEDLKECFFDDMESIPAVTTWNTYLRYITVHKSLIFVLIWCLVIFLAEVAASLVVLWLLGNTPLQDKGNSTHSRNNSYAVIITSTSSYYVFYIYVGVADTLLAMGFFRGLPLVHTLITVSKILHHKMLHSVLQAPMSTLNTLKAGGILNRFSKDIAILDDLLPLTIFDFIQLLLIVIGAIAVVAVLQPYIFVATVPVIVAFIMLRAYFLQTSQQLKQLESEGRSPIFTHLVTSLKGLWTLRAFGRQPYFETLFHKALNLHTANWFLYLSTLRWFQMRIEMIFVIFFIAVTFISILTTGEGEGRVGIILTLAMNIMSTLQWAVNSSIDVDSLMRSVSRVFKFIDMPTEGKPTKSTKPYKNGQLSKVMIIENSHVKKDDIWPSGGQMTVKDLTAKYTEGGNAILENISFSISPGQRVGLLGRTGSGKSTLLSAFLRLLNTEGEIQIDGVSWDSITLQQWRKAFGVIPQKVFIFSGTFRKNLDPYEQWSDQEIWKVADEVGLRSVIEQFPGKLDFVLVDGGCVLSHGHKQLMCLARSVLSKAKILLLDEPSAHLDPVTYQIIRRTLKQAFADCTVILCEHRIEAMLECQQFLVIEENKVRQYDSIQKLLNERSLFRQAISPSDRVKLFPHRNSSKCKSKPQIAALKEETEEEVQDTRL
ASSAY COMMENT: Ussing chamber CFTR-mediated short-circuit current (Isc) in F508del/G551D human bronchial epithelial cells
Assay type: cell-based
TEST CONDITIONS: F508del/G551D epithelia of hBE cells; Isc; 35°C; read-out: EC50 (μM) (95% CI)
MEASURE: EC50 (µM)
Hi! Could you send only the number? It should be in µM, unit omitted.

# get_value(readout='EC50', item= Cc1ncccc1CNC(=O)c1ccc2c(c1)CC[C@H]1C[C@](O)(CCC(F)(F)F)CC[C@]21Cc1ccccc1 (racemic) )
0.14

Record: CC(C)(C)c1cc(C(C)(C)C)c(NC(=O)c2c[nH]c3ccccc3c2=O)cc1O [ivacaftor, reference compound]
0.005
